Target: Squalene monooxygenase (Homo sapiens, UniProt Q14534)
Sequence (Q14534 whole entry): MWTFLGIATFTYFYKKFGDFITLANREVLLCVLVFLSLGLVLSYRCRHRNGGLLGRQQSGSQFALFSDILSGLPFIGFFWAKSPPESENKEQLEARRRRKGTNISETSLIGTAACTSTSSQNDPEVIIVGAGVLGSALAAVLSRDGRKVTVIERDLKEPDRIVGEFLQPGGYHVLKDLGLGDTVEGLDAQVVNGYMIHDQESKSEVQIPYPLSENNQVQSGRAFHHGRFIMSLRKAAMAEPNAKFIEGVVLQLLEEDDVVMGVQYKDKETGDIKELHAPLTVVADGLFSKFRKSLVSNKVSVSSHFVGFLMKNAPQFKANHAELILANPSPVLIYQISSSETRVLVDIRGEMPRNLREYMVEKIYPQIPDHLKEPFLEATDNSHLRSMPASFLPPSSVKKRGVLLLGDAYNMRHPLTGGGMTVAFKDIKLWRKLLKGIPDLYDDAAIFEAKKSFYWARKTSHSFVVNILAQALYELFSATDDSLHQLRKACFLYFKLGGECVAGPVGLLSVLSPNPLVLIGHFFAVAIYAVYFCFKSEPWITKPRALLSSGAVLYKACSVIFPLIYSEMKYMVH
Test: In vitro inhibition of cholesterol biosynthesis in human HepG2 cells.
Listed compounds paired with reported pIC50
FYI, pIC50 means -log10 of a concentration in mol per litre.

Answered cases to consult:
Could you share which pIC50 value was measured for CCN(C/C=C/C#CC(C)(C)C)Cc1cccc(OCCN(C)S(=O)(=O)c2ccsc2)c1 ?
6.60

Next compound up: CCN(C/C=C/C#CC(C)(C)C)Cc1cccc(OCCN(C)S(=O)(=O)c2ccc(-c3ccsc3)s2)c1
6.68

Next compound up: CCN(C/C=C/C#CC(C)(C)C)Cc1cccc(OCCN(C2CC2)S(=O)(=O)c2cccs2)c1
6.64

Next:
Could you share which pIC50 value was measured for CCN(C/C=C/C#CC(C)(C)C)Cc1cccc(OCCN(C)S(=O)(=O)c2ccc(C#N)cc2)c1 ?
6.70

Next compound up: CCN(C/C=C/C#CC(C)(C)C)Cc1cccc(OCCN(C)S(=O)(=O)c2cc(-c3ccsc3)cs2)c1
7.05

Next compound up: CCN(C/C=C/C#CC(C)(C)C)Cc1cccc(OCCNS(=O)(=O)c2cccs2)c1
6.35

====

Biological target: Squalene monooxygenase (Rattus norvegicus, UniProt P52020)
Sequence (P52020 whole entry): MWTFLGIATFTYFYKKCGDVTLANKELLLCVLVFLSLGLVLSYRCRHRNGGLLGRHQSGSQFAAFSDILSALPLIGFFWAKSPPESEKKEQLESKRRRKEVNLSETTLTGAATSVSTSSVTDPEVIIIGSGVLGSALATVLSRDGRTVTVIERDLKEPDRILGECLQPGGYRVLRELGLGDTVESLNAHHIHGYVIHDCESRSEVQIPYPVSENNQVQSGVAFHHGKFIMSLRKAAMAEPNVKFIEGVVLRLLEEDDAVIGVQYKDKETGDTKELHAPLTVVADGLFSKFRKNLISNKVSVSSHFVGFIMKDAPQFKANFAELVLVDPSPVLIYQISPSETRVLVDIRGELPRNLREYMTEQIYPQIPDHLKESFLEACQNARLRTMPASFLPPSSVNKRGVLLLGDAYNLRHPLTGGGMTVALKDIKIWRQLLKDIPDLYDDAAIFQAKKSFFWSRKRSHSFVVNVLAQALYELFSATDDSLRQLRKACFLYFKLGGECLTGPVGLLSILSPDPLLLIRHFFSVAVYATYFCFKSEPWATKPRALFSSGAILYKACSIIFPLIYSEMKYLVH
Assay: In vitro inhibition of rat liver squalene epoxidase […]
Type: cell-based
Measured attribute: pIC50
FYI, pIC50 means -log10 of a concentration in mol per litre.

Could you share which pIC50 value was measured for CCN(C/C=C/C#CC(C)(C)C)Cc1cccc(OCCN(C)S(=O)(=O)c2cccs2)c1 ?
5.22

====

Target: Squalene monooxygenase (Homo sapiens)
Test: In vitro inhibition of cholesterol biosynthesis in human HepG2 cells.
Listed compounds paired with reported pIC50
FYI, pIC50 means -log10 of a concentration in mol per litre.

Answered cases to consult:
Could you share which pIC50 value was measured for CCN(C/C=C/C#CC(C)(C)C)Cc1cccc(OCCN(CC)S(=O)(=O)c2cccs2)c1 ?
7.05

Next compound up: CCCN(CCOc1cccc(CN(CC)C/C=C/C#CC(C)(C)C)c1)S(=O)(=O)c1cccs1
6.77

Next compound up: CCN(C/C=C/C#CC(C)(C)C)Cc1cccc(OCCCS(=O)(=O)c2cccs2)c1
6.54

Next compound up: CCN(C/C=C/C#CC(C)(C)C)Cc1cccc(OCCN(C)S(=O)(=O)c2cccs2)c1
7.22

Next compound up: CCN(C/C=C/C#CC(C)(C)C)Cc1cccc(OCCN(C)S(=O)(=O)c2nccs2)c1
6.77

Next compound up: CCN(C/C=C/C#CC(C)(C)C)Cc1cccc(OCCN(C)S(=O)(=O)c2ccc(Br)s2)c1
6.41

Next:
Could you share which pIC50 value was measured for CCN(C/C=C/C#CC(C)(C)C)Cc1cccc(OCCN(C)S(=O)(=O)Cc2cccs2)c1 ?
6.70

Next compound up: CCN(C/C=C/C#CC(C)(C)C)Cc1cccc(OCCN(C)S(=O)(=O)c2ccc(Br)cc2)c1
6.48

Next compound up: CCN(C/C=C/C#CC(C)(C)C)Cc1cccc(OCCN(C)S(=O)(=O)c2cc3ccccc3s2)c1
5.74

====

Biological target: Squalene monooxygenase (Homo sapiens)
Experiment: In vitro inhibition of cholesterol biosynthesis in human HepG2 cells.
Measured attribute: pIC50
FYI, pIC50 means -log10 of a concentration in mol per litre.

Could you share which pIC50 value was measured for CCN(C/C=C/C#CC(C)(C)C)Cc1cccc(OCCCN(C)S(=O)(=O)c2cccs2)c1 ?
5.19

Next molecule up: CCN(C/C=C/C#CC(C)(C)C)Cc1cccc(OCCN(C)S(=O)(=O)c2ccc(F)cc2)c1
6.59

Next molecule up: CCN(C/C=C/C#CC(C)(C)C)Cc1cccc(OCCN(C)S(=O)(=O)c2cccnc2)c1
6.82

Next molecule up: CCN(C/C=C/C#CC(C)(C)C)Cc1cccc(OCCN(C)S(=O)(=O)c2ccc(-c3cccs3)s2)c1
5.00

Next molecule up: CCN(C/C=C/C#CC(C)(C)C)Cc1cccc(OCCN(C)S(=O)(=O)c2cc(Br)cs2)c1
6.52
